The origin of these recorded values is patent US20090291081A1.

Readings of pIC50 for the listed binders
# Assayed Target: T1, human IL-1α (human, UniProt P01583 113-271)
# T1 construct: also called IL-1alpha; hIL-1α
# T1 sequence (looked up): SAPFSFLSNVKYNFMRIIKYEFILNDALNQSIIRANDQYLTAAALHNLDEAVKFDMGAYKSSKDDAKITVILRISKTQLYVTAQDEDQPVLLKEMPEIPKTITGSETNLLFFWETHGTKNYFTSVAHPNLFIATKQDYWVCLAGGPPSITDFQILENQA
# Run Description: Table 62 IC50; RBA presumed
pIC50 here: minus log base 10 of the concentration, concentration in moles per litre.

# input Tell me the measured pIC50 of ABT1-95-157 (other, VK dAb) VL: DIQMTQSPSSLSASVGDRVTITCRASQPIVRNLRWYQQKPGKAPKLLITSSSYLEPGVPSRFSGSGSGADFTLTISSLQPEDFATYHCQQGYRWPVTFGQGTKVEIKR , please.
# output 8.00

# input Next up: ABT1-141-3 (other, VK dAb) VL: DIQMTQSPSSLSASVGDRVTITCRASQWIQKQLAWYQQKPGKTPKLLIYSQSHLQSGVPSRFSGSGSGTDFTLTISSLQPEDFATYYCQQHLRVPFTFGQGTKVEIKR
# output 7.10

# input Next up: ABT1-95-96 (other, VK dAb) VL: DIQMTQSPSSLSASVGDRVTIACRASQPIVRNLRWYQQKPGKAPKLLIYSSSRLEPGVPSRFSGSGSGTDFTLTISSLQPEDFATYHCQQGYRWPVTFGQGTKVEIKR
# output 10.00

# input Next up: ABT1-160 (other, VK dAb) VL: DIQMTQSPSSLSASVGDRVTITCRASTEIVRNLRWYQQKPGKAPNLLIWGGSTLQSGVPSRFSGSGSGTDFTLTISSLQPEDFATYYCVQGYSLPVTFGQGTKVEIKR
# output 6.52
